Consider the following molecules; for each one, report its MIC.
# Tested on: Klebsiella
# assay_summary: Minimum inhibitory concentration against Klebsiella (X26)
# Type: functional
# condition_description: Klebsiella; read-out: MIC
Return type: number; implicit unit µg/mL.

Please indicate MIC recorded for CO/N=C(/C(=O)N[C@@H]1C(=O)N2C(C(=O)O)=C(S(=O)(=O)c3ccccc3)CC[C@H]12)c1csc(N)n1 1

Annotate the molecule N[C@@H](C(=O)N[C@@H]1C(=O)N2C(C(=O)O)=C(Cl)CS[C@H]12)c1ccccc1 [CEFACLOR ANHYDROUS] with its measured MIC. 0.25

Note MIC for the molecule shown: CS(=O)(=O)C1=C(C(=O)O)N2C(=O)[C@@H](NC(=O)COc3ccccc3)[C@H]2CC1 (stereo in doubt; 7) 8

# return recorded MIC for input CO/N=C(/C(=O)N[C@@H]1C(=O)N2C(C(=O)O)=C(S(=O)(=O)C3CC3)CC[C@H]12)c1csc(N)n1 0.06

* * *

# System: Salmonella
# assay_summary: Minimum inhibitory concentration against Salmonella (X514)
# Assay type: functional
# condition_description: Salmonella; read-out: MIC
measurement_name: MIC (µg/mL)
Kindly provide the numeric value in µg/mL only, without the unit symbol.

Fill in MIC for record N[C@@H](C(=O)N[C@@H]1C(=O)N2C(C(=O)O)=C(Cl)CS[C@H]12)c1ccccc1 [CEFACLOR ANHYDROUS] 2

Respond only with MIC recorded for CCS(=O)(=O)C1=C(C(=O)O)N2C(=O)[C@@H](NC(=O)/C(=N/OC)c3csc(N)n3)[C@H]2CC1 0.06

Supply recorded MIC for CO/N=C(/C(=O)N[C@@H]1C(=O)N2C(C(=O)O)=C(S(=O)(=O)c3c(C)noc3C)CC[C@H]12)c1csc(N)n1 here. 4

State, in one line, measured MIC of CO/N=C(/C(=O)N[C@@H]1C(=O)N2C(C(=O)O)=C(S(=O)(=O)c3ccccc3)CC[C@H]12)c1csc(N)n1 0.25

Kindly indicate its recorded MIC. Item: CO/N=C(/C(=O)N[C@@H]1C(=O)N2C(C(=O)O)=C(S(=O)(=O)C3CC3)CC[C@H]12)c1csc(N)n1 0.125

Return value of MIC for input CO/N=C(/C(=O)N[C@@H]1C(=O)N2C(C(=O)O)=C(S(=O)(=O)c3cccnc3)CC[C@H]12)c1csc(N)n1 , no commentary. 2

State, in one line, measured MIC of CO/N=C(/C(=O)N[C@@H]1C(=O)N2C(C(=O)O)=C(S(C)(=O)=O)CC[C@H]12)c1csc(N)n1 0.125

* * *

Task for the reader: assign each of the following compounds its reported MIC.
# System: Pseudomonas aeruginosa
# assay_summary: Minimum inhibitory concentration against Pseudomonas aeruginosa (X528)
# Type: functional
# condition_description: Pseudomonas aeruginosa; read-out: MIC

// fetch MIC given entry CCCS(=O)(=O)C1=C(C(=O)O)N2C(=O)[C@@H](NC(=O)/C(=N/OC)c3csc(N)n3)[C@H]2CC1 > 128 µg/mL

Identify measured MIC corresponding to CO/N=C(/C(=O)N[C@@H]1C(=O)N2C(C(=O)O)=C(S(=O)(=O)C(C)C)CC[C@H]12)c1csc(N)n1 > 128 µg/mL

Hello, please tell me recorded MIC for this one: CO/N=C(/C(=O)N[C@@H]1C(=O)N2C(C(=O)O)=C(S(C)(=O)=O)CC[C@H]12)c1csc(N)n1 > 128 µg/mL

Please supply the value of reported MIC for the item CO/N=C(/C(=O)N[C@@H]1C(=O)N2C(C(=O)O)=C(S(=O)(=O)c3cccs3)CC[C@H]12)c1csc(N)n1 > 128 µg/mL
